Organism: Rattus norvegicus
METHOD_NOTES: Open TG-GATES - Regimen: Daily Repeat
Assay type: toxicity, organism-based, Sprague-Dawley
Set-up: regimen Daily Repeat, gender Male, age 6 weeks
STATED_CONDITIONS: in vivo, po, 1000 mg/kg, 72 h, tissue Plasma, route gavage, dose level High, time 3 day
Label satisfied when GLC >= 200 mg/dL; otherwise not satisfied.

As a guide, the following entries are already answered.
GLC >= 200 mg/dL for `NC(N)=Nc1nc(CSCCC(N)=NS(N)(=O)=O)cs1` ?
not satisfied

Note, next up: CCOC(=O)CCC(=O)O[C@H]1[C@H](O[C@@H]2[C@@H](C)[C@H](O[C@H]3C[C@@](C)(OC)[C@@H](O)[C@H](C)O3)[C@@H](C)C(=O)O[C@H](CC)[C@@](C)(O)[C@H](O)[C@@H](C)C(=O)[C@H](C)C[C@@]2(C)O)O[C@H](C)C[C@@H]1N(C)C [ERYTHROMYCIN ETHYLSUCCINATE]
not satisfied

Also CCOc1ccc(NC(=O)CC(C)O)cc1 (stereo unspecified) ?
not satisfied

More entries:
Quick check, GLC >= 200 mg/dL? CC(C)OC(=O)C(C)(C)Oc1ccc(C(=O)c2ccc(Cl)cc2)cc1 [FENOFIBRATE]
not satisfied

Let us now turn to `COC1=CC(=O)C[C@@H](C)[C@]12Oc1c(Cl)c(OC)cc(OC)c1C2=O`
satisfied

---

Species: Rattus norvegicus
METHOD_NOTES: Open TG-GATES - Regimen: Single
Format: toxicity, organism-based, Sprague-Dawley
Design: regimen Single, gender Male, age 6 weeks
STATED_CONDITIONS: in vivo, po, 0 mg/kg, 6 h, tissue Plasma, route gavage, dose level Control
REPORTED_ENDPOINT: Cl (meq/L)
Use meq/L as the unit, but write only the number.

As a guide, the following entries are already answered.
Fill in: Cl of Cc1ccc(C)c(OCCCC(C)(C)C(=O)O)c1 [GEMFIBROZIL] is ___
107.4

Now consider O=C(CCCN1CCC(O)(c2ccc(Cl)cc2)CC1)c1ccc(F)cc1 [HALOPERIDOL] .
104.8

Next entry: COc1cc2c(c(OC)c1OC)-c1ccc(OC)c(=O)cc1[C@@H](NC(C)=O)CC2 [COLCHICINE]
104

---
Bench note: what Cl did C[C@@H]1C[C@H]2[C@@H]3CCC4=CC(=O)C=C[C@]4(C)[C@@]3(F)[C@@H](O)C[C@]2(C)[C@@]1(O)C(=O)CO [DEXAMETHASONE] show?
103.8

---

Quick reference for Cl among some compounds
Species: Rattus norvegicus
METHOD_NOTES: Open TG-GATES - Regimen: Daily Repeat
Type: toxicity, organism-based, Sprague-Dawley
Design: regimen Daily Repeat, gender Male, age 6 weeks
STATED_CONDITIONS: in vivo, po, 100 mg/kg, […], tissue Plasma, route gavage, dose level Low, time 14 day
The answer is to be given in meq/L; state only the numeric part.

Recorded results for 4 compounds are shown here.
So what's the measured Cl for this one? CCOC(=O)CCC(=O)O[C@H]1[C@H](O[C@@H]2[C@@H](C)[C@H](O[C@H]3C[C@@](C)(OC)[C@@H](O)[C@H](C)O3)[C@@H](C)C(=O)O[C@H](CC)[C@@](C)(O)[C@H](O)[C@@H](C)C(=O)[C@H](C)C[C@@]2(C)O)O[C@H](C)C[C@@H]1N(C)C [ERYTHROMYCIN ETHYLSUCCINATE]
107.2

Subsequent entry: COc1ccc2[nH]c([S+]([O-])Cc3ncc(C)c(OC)c3C)nc2c1 (stereo not given) [OMEPRAZOLE]
101.4

Would you mind doing COC1=CC(=O)C[C@@H](C)[C@]12Oc1c(Cl)c(OC)cc(OC)c1C2=O [GRISEOFULVIN] as well?
103.2

// same read-out, input: NC(N)=Nc1nc(CSCCC(N)=NS(N)(=O)=O)cs1 [FAMOTIDINE]
104

---
Requested field: Cl. Item: CCOc1ccc(NC(=O)CC(C)O)cc1 (stereo not given) [BUCETIN]
105.8

---

Species: Rattus norvegicus
METHOD_NOTES: Open TG-GATES - Regimen: Single
Assay type: toxicity, organism-based, Sprague-Dawley
Parameters: regimen Single, gender Male, age 6 weeks
STATED_CONDITIONS: in vivo, po, 1000 mg/kg, 24 h, tissue Plasma, route gavage, dose level High
Quick reference: Cl of the listed items.
Give the value, in units of meq/L, as a plain number.

These recorded examples may help you get a feel for the data.
// returns reported Cl for input `NC(N)=Nc1nc(CSCCC(N)=NS(N)(=O)=O)cs1`
102.6

What about `COC1=CC(=O)C[C@@H](C)[C@]12Oc1c(Cl)c(OC)cc(OC)c1C2=O` ?
104

Subsequent entry: CCOC(=O)CCC(=O)O[C@H]1[C@H](O[C@@H]2[C@@H](C)[C@H](O[C@H]3C[C@@](C)(OC)[C@@H](O)[C@H](C)O3)[C@@H](C)C(=O)O[C@H](CC)[C@@](C)(O)[C@H](O)[C@@H](C)C(=O)[C@H](C)C[C@@]2(C)O)O[C@H](C)C[C@@H]1N(C)C [ERYTHROMYCIN ETHYLSUCCINATE]
107.6

---
Consider the compound shown here: COc1ccc2[nH]c([S+]([O-])Cc3ncc(C)c(OC)c3C)nc2c1 (centres undefined) What is its recorded Cl?
100.6

---

Organism: Rattus norvegicus
METHOD_NOTES: Open TG-GATES - Regimen: Single
Format: toxicity, organism-based, Sprague-Dawley
Set-up: regimen Single, gender Male, age 6 weeks
STATED_CONDITIONS: in vivo, po, 300 mg/kg, 9 h, tissue Kidney, route gavage, dose level Middle
REPORTED_ENDPOINT: KIDNEY_TOTAL
Hi, when you answer, please include the unit after the number. Thanks!

Recorded results for 3 compounds are shown here.
I would be grateful if you could share the reported KIDNEY_TOTAL for CCOC(=O)CCC(=O)O[C@H]1[C@H](O[C@@H]2[C@@H](C)[C@H](O[C@H]3C[C@@](C)(OC)[C@@H](O)[C@H](C)O3)[C@@H](C)C(=O)O[C@H](CC)[C@@](C)(O)[C@H](O)[C@@H](C)C(=O)[C@H](C)C[C@@]2(C)O)O[C@H](C)C[C@@H]1N(C)C [ERYTHROMYCIN ETHYLSUCCINATE] .
2 g

What about `COC1=CC(=O)C[C@@H](C)[C@]12Oc1c(Cl)c(OC)cc(OC)c1C2=O` ?
2 g

What would you report for `NC(N)=Nc1nc(CSCCC(N)=NS(N)(=O)=O)cs1` ?
1.9 g

Could you now look at the following compound, please?
Recorded KIDNEY_TOTAL of COc1ccc2[nH]c([S+]([O-])Cc3ncc(C)c(OC)c3C)nc2c1 (centres undefined) , please.
1.9 g

---

Listing of entries alongside the reported PL.
Species: Rattus norvegicus
METHOD_NOTES: Open TG-GATES - Regimen: Single
Type: toxicity, organism-based, Sprague-Dawley
Design: regimen Single, gender Male, age 6 weeks
STATED_CONDITIONS: in vivo, po, 10 mg/kg, 24 h, tissue Plasma, route gavage, dose level Low
Write the value in mg/dL as a bare number.

Some entries whose results are on file:
Give the measured PL of `CN(C)CCCN1c2ccccc2CCc2ccc(Cl)cc21` .
144.4

Next: `CC1=C(/C=C/C(C)=C/C=C/C(C)=C/CO)C(C)(C)CCC1`
135.2

Further cases:
Which value of PL has been reported for `CN(C)CCN(Cc1cccs1)c1ccccn1` in the records?
145.4

For CC(C)OC(=O)C(C)(C)Oc1ccc(C(=O)c2ccc(Cl)cc2)cc1 [FENOFIBRATE] then?
133.2

---

Species: Rattus norvegicus
METHOD_NOTES: Open TG-GATES - Regimen: Single
Assay type: toxicity, organism-based, Sprague-Dawley
Design: regimen Single, gender Male, age 6 weeks
STATED_CONDITIONS: in vivo, po, 1000 mg/kg, 3 h, tissue Blood, route gavage, dose level High
REPORTED_ENDPOINT: Ht (%)
Use % as the unit, but write only the number.

Past entries and their recorded results:
Name the reported Ht value associated with the molecule `COC1=CC(=O)C[C@@H](C)[C@]12Oc1c(Cl)c(OC)cc(OC)c1C2=O`
35.6

// query: `NC(N)=Nc1nc(CSCCC(N)=NS(N)(=O)=O)cs1`
37.1

Do the same for CCOC(=O)CCC(=O)O[C@H]1[C@H](O[C@@H]2[C@@H](C)[C@H](O[C@H]3C[C@@](C)(OC)[C@@H](O)[C@H](C)O3)[C@@H](C)C(=O)O[C@H](CC)[C@@](C)(O)[C@H](O)[C@@H](C)C(=O)[C@H](C)C[C@@]2(C)O)O[C@H](C)C[C@@H]1N(C)C [ERYTHROMYCIN ETHYLSUCCINATE] please
39.2

What would you report for CC(C)OC(=O)C(C)(C)Oc1ccc(C(=O)c2ccc(Cl)cc2)cc1 [FENOFIBRATE] ?
40.6

Then there is this molecule:
Which Ht is listed for COc1ccc2[nH]c([S+]([O-])Cc3ncc(C)c(OC)c3C)nc2c1 (stereo not given) ?
36.3
